variants and their reported protein stability index
B1: SETD8 (parent)
chain: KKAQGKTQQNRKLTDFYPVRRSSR

# Variants of: B1
# experimentDescription: protein stability index of a GFP-peptide fusion (GPS, HEK-293T) (PSI 1-6); higher = more stable;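 also: lentivirally expressed fusions sorted by FACS into six bins by GFP to DsRed ratio, PSI derived from sequencing read proportions per bin multiplied by bin number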
# testContext: c terminus: a fixed tail appended
Give the value as a plain number.

{"variantDescription": "K1R", "parameter": "protein stability index", "readoutValue": 2.24}
{"variantDescription": "L13T", "parameter": "protein stability index", "readoutValue": 3.51}
{"variantDescription": "K1V", "parameter": "protein stability index", "readoutValue": 2.73}
{"variantDescription": "K6G", "parameter": "protein stability index", "readoutValue": 3.09}

So, "R11N" ? Its protein stability index was 2.86

So, "Q8L" ? Its protein stability index was 2.41

So, "L13E" ? Its protein stability index was 2.77

So, "T14L" ? Its protein stability index was 3.72

So, "R11A" ? Its protein stability index was 1.6

Numbers sourced from the supplement of paper PMC10567573.
